AC50 values by entry
Target: Paired box protein Pax-8 (Homo sapiens, UniProt Q06710)
Sequence (Q06710 whole entry): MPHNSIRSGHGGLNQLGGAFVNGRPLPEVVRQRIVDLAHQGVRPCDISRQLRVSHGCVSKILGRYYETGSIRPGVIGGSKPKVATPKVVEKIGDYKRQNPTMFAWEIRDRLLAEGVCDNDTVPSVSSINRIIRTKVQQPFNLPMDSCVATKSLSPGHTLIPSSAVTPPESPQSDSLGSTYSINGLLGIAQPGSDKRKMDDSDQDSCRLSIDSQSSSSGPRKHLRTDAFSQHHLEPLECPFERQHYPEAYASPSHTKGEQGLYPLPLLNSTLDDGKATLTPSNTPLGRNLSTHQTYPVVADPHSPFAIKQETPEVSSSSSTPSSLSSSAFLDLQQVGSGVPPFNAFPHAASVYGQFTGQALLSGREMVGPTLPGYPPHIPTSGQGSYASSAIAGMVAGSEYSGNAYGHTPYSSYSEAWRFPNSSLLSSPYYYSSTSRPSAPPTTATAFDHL
Experiment: inhibitors of PAX8-driven TPO luciferase reporter, dose response, RMG-I cells, cherry-pick (AID 687027);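 also: luciferase reporter driven by Pax8 target thyroperoxidase promoter measured by SteadyGlo luminescence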
Type: functional, cell-based
Calls of active or inactive are those of the source. No rule for the calls is given here.

These recorded examples may help you get a feel for the data.
INSERT INTO assay_data (compound, result) VALUES
  ('C[C@@H]1CN([C@H](C)CO)C(=O)c2cc(NC(=O)Nc3ccc(C(F)(F)F)cc3)ccc2O[C@@H](C)CCCCO[C@H]1CN(C)S(=O)(=O)c1ccccc1', '2.23 µM (active)'),
  ('C[C@H](CO)N1C[C@H](C)[C@H](CN(C)Cc2ccc(C(F)(F)F)cc2)OCCCC[C@H](C)Oc2ccc(NS(=O)(=O)c3ccc(F)cc3)cc2C1=O', '7.71 µM (active)'),
  ('CC(C)CC#Cc1ccc2c(c1)O[C@H](CN(C)Cc1ccc(C(=O)O)cc1)[C@@H](C)CN([C@H](C)CO)S2(=O)=O', '19.3 µM (active)'),
  ('C[C@@H]1CCCCO[C@H](CN(C)S(=O)(=O)c2cccs2)[C@@H](C)CN([C@@H](C)CO)C(=O)c2cc(NC(=O)Nc3ccc(C(F)(F)F)cc3)ccc2O1', '3.48 µM (active)'),
  ('CN1c2ccc(C3=CCCCC3)cc2[C@H]2[C@H](CCN2C(=O)NC2CCCCC2)[C@@H]1CO', '12.3 µM (active)');

Notebook: pull reported AC50 for Paired box protein Pax-8 (Homo sapiens, UniProt Q06710), entry `C[C@H](CO)N1C[C@H](C)[C@H](CN(C)Cc2ccc(C(F)(F)F)cc2)OCCCC[C@H](C)Oc2ccc(NC(=O)NC3CCCCC3)cc2C1=O`
10.1 µM (active)

Notebook: pull reported AC50 for Paired box protein Pax-8 (Homo sapiens, UniProt Q06710), entry Oc1ccc(C[C@H]2CNC(=S)N2CC2CCCN2C[C@H](Cc2ccccc2)N2C[C@H](Cc3ccc(O)cc3)N(CCc3ccccc3)C2=S)cc1 (some centres not stated)
11.5 µM (active)
